Molecular target: T1, recombinant human TIGIT (human, UniProt Q495A1 22-141, limits assumed)
T1 construct: recombinant human TIGIT used in Carterra SPR; also called hTIGIT
T1 sequence (looked up): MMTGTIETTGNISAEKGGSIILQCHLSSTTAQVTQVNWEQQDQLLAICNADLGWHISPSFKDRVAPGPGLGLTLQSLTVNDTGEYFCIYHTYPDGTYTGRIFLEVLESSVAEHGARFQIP
Assay: SPR Carterra, average
Method: Binding affinities of VHH-Fc proteins to recombinant human TIGIT were measured by SPR using a Carterra instrument (Table 10A). […] Average values reported from measurements from 1-2 samples.
ASSAY ENDPOINT: Kd (nM)
One number for each entry, in nM.

// worked examples, Kd included
TIGIT-SC159 (Fc fusion, VHH-Fc fusion in assay) VHH: EVQLVESGGGLVQPGGSLRLSCAASGFTFDRSWMGWFRQAPGKEREWVASVLRGGYTWYADSVKGRFTISADNSKNTAYLQMNSLKPEDTAVYYCAREGRSSSPWFDPWGQGTLVTVSS :: 14.6
TIGIT-SC13 (Fc fusion, VHH-Fc fusion in assay) VHH: EVQLVESGGGLVQPGGSLRLSCAASGRTFSFMGWFRQAPGKEREWVASVLRGGYTWYADSVKGRFTISADNSKNTAYLQMNSLKPEDTAVYYCATESMDYWGQGTLVTVSS :: 3.08
TIGIT-SC212 (Fc fusion, VHH-Fc fusion in assay) VHH: EVQLVESGGGLVQPGGSLRLSCAASGFLFDSYAMGWFRQAPGKEREFVAAIWRSGTLKAYADSVKGRFTISADNSKNTAYLQMNSLKPEDTAVYYCARWVGASGDYWIDYWGQGTLVTVSS :: 17.1
TIGIT-SC185 (Fc fusion, VHH-Fc fusion in assay) VHH: EVQLVESGGGLVQPGGSLRLSCAASGRTFSFMGWFRQAPGKEREWVASVLRGGYTWYADSVKGRFTISADNSKNTAYLQMNSLKPEDTAVYYCTTDRGYNWNYDWGQGTLVTVSS :: 80.3

Provide reported Kd for each item, in the same order as listed.
1. TIGIT-SC17 (Fc fusion, VHH-Fc fusion in assay) VHH: EVQLVESGGGLVQPGGSLRLSCAASGFDFSVSWMGWFRQAPGKEREWVASVLRGGYTWYADSVKGRFTISADNSKNTAYLQMNSLKPEDTAVYYCAREGSWFDYWGQGTLVTVSS
2. TIGIT-SC76 (Fc fusion, VHH-Fc fusion in assay) VHH: EVQLVESGGGLVQPGGSLRLSCAASGFTFSDYAMGWFRQAPGKERELVARIGHDGSTDYADSVKGRFTISADNSKNTAYLQMNSLKPEDTAVYYCLGGLDPWGQGTLVTVSS
3. TIGIT-SC24 (Fc fusion, VHH-Fc fusion in assay) VHH: EVQLVESGGGLVQPGGSLRLSCAASGFTFDRSWMGWFRQAPGKEREVVASITSGGSTYYADSVKGRFTISADNSKNTAYLQMNSLKPEDTAVYYCAADVWYGSTWRNWGQGTLVTVSS
4. TIGIT-SC183 (Fc fusion, VHH-Fc fusion in assay) VHH: EVQLVESGGGLVQPGGSLRLSCAASGFAFGDSWMGWFRQAPGKEREWVASVLRGGYTWYADSVKGRFTISADNSKNTAYLQMNSLKPEDTAVYYCAKDRSYSFDYWGQGTLVTVSS

RESULT:
47.9
7.64
3.08
55.2
